- Target Or System: Cytochrome P450 3A4 (Homo sapiens) (UniProt P08684)
- Sequence (P08684 whole entry, looked up): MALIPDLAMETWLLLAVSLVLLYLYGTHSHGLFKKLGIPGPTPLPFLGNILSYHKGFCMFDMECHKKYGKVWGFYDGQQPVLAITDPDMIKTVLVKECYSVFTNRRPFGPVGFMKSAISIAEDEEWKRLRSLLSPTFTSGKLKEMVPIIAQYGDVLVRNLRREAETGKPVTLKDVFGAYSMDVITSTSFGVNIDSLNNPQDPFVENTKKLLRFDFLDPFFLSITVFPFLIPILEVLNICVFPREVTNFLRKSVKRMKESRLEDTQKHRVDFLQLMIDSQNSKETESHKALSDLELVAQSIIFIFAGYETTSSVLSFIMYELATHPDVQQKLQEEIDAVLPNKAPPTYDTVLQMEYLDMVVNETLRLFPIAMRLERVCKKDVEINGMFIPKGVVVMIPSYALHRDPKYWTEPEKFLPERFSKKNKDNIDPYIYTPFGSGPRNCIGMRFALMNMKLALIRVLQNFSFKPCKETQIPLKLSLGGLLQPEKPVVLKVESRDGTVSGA
- Protocol Notes: Cytochrome P450 Family 3 Subfamily A Member 4 (CYP3A4) small molecule antagonists: luciferase reporter qHTS assay (AID 1671201); also: nearly all actives have a fitted effect of over 50% in size
- Condition Summary: P450-Glo CYP3A4 enzyme, luciferin luminescence, 1 h; series mostly up to 115 µM
Records with an inconclusive call do not appear. Active and inactive are the calls of the source. Calls follow the shape of the dose curve; as a rule, active = well fitted inhibition curve with a large enough effect in the repeat runs; inconclusive = weak or mixed curves; inactive = no such curve, though single readings can be large or run the other way.
API: response.call in active, inactive

Incoming: What classification did Cc1cc(C(C)(C)C)cc(C)c1CC1=NCCN1 end up with in this test?
Outgoing: inactive

Incoming: What classification did Oc1cc(Cl)cc(Cl)c1Cl end up with in this test?
Outgoing: inactive

Incoming: What classification did c1ccc(SSc2ccccc2)cc1 end up with in this test?
Outgoing: inactive

Incoming: What classification did CCC(COC(=O)CCS)(COC(=O)CCS)COC(=O)CCS end up with in this test?
Outgoing: active

Incoming: What classification did Cc1cccc(C(=O)O)c1O end up with in this test?
Outgoing: inactive

Incoming: What classification did CC/C=C\CCCCCO end up with in this test?
Outgoing: inactive

Incoming: What classification did CCCCCC/C=C\CCCCCCCC(=O)O end up with in this test?
Outgoing: inactive

Incoming: What classification did CC1(C)CCC[C@]2(C)[C@H]3CCO[C@]3(C)CC[C@@H]12 end up with in this test?
Outgoing: inactive

Incoming: What classification did Nc1nc2c(ncn2COCCO)c(=O)[nH]1 end up with in this test?
Outgoing: inactive

Incoming: What classification did Clc1nnc(Cl)c2ccccc12 end up with in this test?
Outgoing: inactive

Incoming: What classification did C=C(C)C(=O)OCCCCCCCCCC end up with in this test?
Outgoing: inactive

Incoming: What classification did CCO[Si](OCC)(OCC)OCC end up with in this test?
Outgoing: inactive

Incoming: What classification did ClCCl end up with in this test?
Outgoing: inactive

Incoming: What classification did CCCCCCCCCCCCCC[N+](C)(C)C end up with in this test?
Outgoing: inactive

Incoming: What classification did C=CC(=O)Nc1cc2c(Nc3ccc(F)c(Cl)c3)ncnc2cc1OCCCN1CCOCC1 end up with in this test?
Outgoing: active

Incoming: What classification did CCCCC/C=C\C/C=C\CCCCCCCC(=O)O end up with in this test?
Outgoing: active

Incoming: What classification did CCN(CC)c1ccc2c(-c3ccc(S(=O)(=O)O)cc3S(=O)(=O)[O-])c3ccc(=[N+](CC)CC)cc-3oc2c1 end up with in this test?
Outgoing: active

Incoming: What classification did Cc1cc(C)c(/C=C2\C(=O)Nc3ccccc32)[nH]1 end up with in this test?
Outgoing: inactive

Incoming: What classification did Cc1nc(-c2ccc(Cl)cc2)oc1COC(C)(C)C(=O)O end up with in this test?
Outgoing: inactive

Incoming: What classification did C1CCC(SSC2CCCCC2)CC1 end up with in this test?
Outgoing: inactive

Incoming: What classification did CN1CCCCC1CCN1c2ccccc2Sc2ccc(S(C)=O)cc21 (centres undefined) end up with in this test?
Outgoing: inactive

Incoming: What classification did CCCC(=O)OCCc1ccccc1 end up with in this test?
Outgoing: inactive

Incoming: What classification did Clc1ccnc(Cl)n1 end up with in this test?
Outgoing: inactive

Incoming: What classification did [Cu+] end up with in this test?
Outgoing: active

Incoming: What classification did CC(C)(C)c1ccc(C(O)CCCN2CCC(C(O)(c3ccccc3)c3ccccc3)CC2)cc1 (centres undefined) end up with in this test?
Outgoing: inactive

Incoming: What classification did Cc1ccc(N/N=c2\c(=O)cc/c(=N\Nc3ccc(S(=O)(=O)O)cc3)c2=O)c(C)c1 end up with in this test?
Outgoing: inactive

Incoming: What classification did Nc1cc(Cl)c(O)c(Cl)c1 end up with in this test?
Outgoing: active

Incoming: What classification did CN(C)CCN1CCN(c2cccc(Cl)c2)C1=O end up with in this test?
Outgoing: inactive

Incoming: What classification did Nc1ccc(NCCO)c([N+](=O)[O-])c1 end up with in this test?
Outgoing: active

Incoming: What classification did CC[N+](CC)(CC)CCOc1ccc(/C=C/c2ccccc2)cc1 end up with in this test?
Outgoing: inactive

Incoming: What classification did Cc1ccc(O)c(N)c1 end up with in this test?
Outgoing: active

Incoming: What classification did O=C1c2ccccc2C(=O)N1SC1CCCCC1 end up with in this test?
Outgoing: inactive

Incoming: What classification did Fc1ccc(C(c2ccc(F)cc2)N2CCNCC2)cc1 end up with in this test?
Outgoing: inactive

Incoming: What classification did CCCNCCC end up with in this test?
Outgoing: inactive

Incoming: What classification did COC(=O)C1=C(C)NC(C)=C(C(=O)OCCN2CCN(C(c3ccccc3)c3ccccc3)CC2)C1c1cccc([N+](=O)[O-])c1 (centres undefined) end up with in this test?
Outgoing: inactive

Incoming: What classification did COC(C)=O end up with in this test?
Outgoing: inactive

Incoming: What classification did CCCCCCCCCCCC(=O)OCC(C)OC(=O)CCCCC(=O)O (centres undefined) end up with in this test?
Outgoing: active

Incoming: What classification did COc1cc(S(=O)(=O)O)c(C)cc1N=Nc1c(O)ccc2cc(S(=O)(=O)O)ccc12 end up with in this test?
Outgoing: inactive

Incoming: What classification did C=CC(C)(CCC=C(C)C)OC=O (centres undefined) end up with in this test?
Outgoing: active

====

- Protocol Notes: qHTS assay for small molecule agonists of the antioxidant response element (ARE) signaling pathway - cell viability counter screen (AID 743203); also: nearly all actives have a fitted effect of over 55% in size
- Condition Summary: ARE-bla HepG2 viability, CellTiter-Glo luminescence, 16 h; series mostly up to 73.3 µM
Inconclusive results are not listed. Activity calls are given as the source filed them. Calls follow the shape of the full dose curve.
API: response.call in active, inactive

Incoming: What classification did CCCCNS(=O)(=O)c1ccc(C)cc1 end up with in this test?
Outgoing: inactive

Incoming: What classification did CCN(CC)C(=O)c1cc(S(=O)(=O)Cc2ccccc2)c(N2CCC(c3ccccc3)CC2)cc1N(CC)CCN(C)C end up with in this test?
Outgoing: active

Incoming: What classification did CC(=O)c1ccc(C(C)=O)cc1 end up with in this test?
Outgoing: inactive

Incoming: What classification did O=[N+]([O-])c1cccc(C(F)(F)F)c1 end up with in this test?
Outgoing: inactive

Incoming: What classification did OCCN1CCN(CCCN2c3ccccc3Sc3ccc(C(F)(F)F)cc32)CC1 end up with in this test?
Outgoing: active

Incoming: What classification did CCCNCCC end up with in this test?
Outgoing: inactive

Incoming: What classification did O=C(O)c1cc(O)c2ccccc2c1O end up with in this test?
Outgoing: active

Incoming: What classification did CC(C)CCOC(=O)/C=C/c1ccccc1 end up with in this test?
Outgoing: inactive

Incoming: What classification did C=C(C)c1cccc(C(=C)C)c1 end up with in this test?
Outgoing: inactive

Incoming: What classification did CCCCCCCCCCCCCCCC[N+](C)(C)CC end up with in this test?
Outgoing: active

Incoming: What classification did CC(N=C(NC#N)Nc1ccncc1)C(C)(C)C (stereo unspecified) end up with in this test?
Outgoing: inactive

Incoming: What classification did CCOC(=O)Cn1cccc1-c1nc(-c2ccc(OC)cc2)c(-c2ccc(OC)cc2)s1 end up with in this test?
Outgoing: inactive

Incoming: What classification did CC(=O)[C@H]1CC[C@H]2[C@@H]3CCC4=CC(=O)CC[C@]4(C)[C@H]3CC[C@]12C end up with in this test?
Outgoing: inactive

Incoming: What classification did CCCC[P+](C)(CCCC)CCCC end up with in this test?
Outgoing: inactive

Incoming: What classification did O=C(c1ccc(O)c(O)c1)c1ccc(O)cc1O end up with in this test?
Outgoing: inactive

Incoming: What classification did O=C1NC(=O)[C@@H]2CC=CC[C@H]12 end up with in this test?
Outgoing: inactive

Incoming: What classification did C1CCC(SSC2CCCCC2)CC1 end up with in this test?
Outgoing: inactive

Incoming: What classification did COc1ccc2c(c1)c(CC(=O)OC/C=C(\C)CC/C=C(\C)CCC=C(C)C)c(C)n2C(=O)c1ccc(Cl)cc1 end up with in this test?
Outgoing: inactive

Incoming: What classification did C=CC(C)(CCC=C(C)C)OC=O (stereo unspecified) end up with in this test?
Outgoing: inactive

Incoming: What classification did C=CC(=O)OCCOC(=O)C=C end up with in this test?
Outgoing: inactive

Incoming: What classification did O=C1OC2(c3ccc(O)cc3Oc3cc(O)ccc32)c2ccc(N=C=S)cc21 end up with in this test?
Outgoing: inactive

====

- Protocol Notes: qHTS assay for small molecule agonists of the p53 signaling pathway (AID 651631); also: nearly all actives have a fitted effect of over 15% in size
- Condition Summary: HCT-116 p53RE-bla reporter, beta-lactamase FRET ratio, 16 h; series mostly up to 73.3 µM
Records with an inconclusive call do not appear. Active and inactive are the calls of the source. Calls follow the shape of the full dose curve.
API: response.call in 1 (yes) = active, 0 (no) = inactive

Incoming: What classification did CCCCCC(C)OC(=O)COc1ccc(Cl)c2cccnc12 (stereo not drawn) end up with in this test?
Outgoing: 0 (no)

Incoming: What classification did O[C@@H]([C@H](O)[C@H](O)CBr)[C@H](O)CBr end up with in this test?
Outgoing: 0 (no)

Incoming: What classification did NC[C@H]1O[C@H](O[C@H]2[C@H](O[C@@H]3O[C@H](CO)[C@@H](O)[C@H]3O)C(O)[C@H](N)C[C@@H]2N)[C@H](N)[C@@H](O)[C@@H]1O (stereo partly drawn) end up with in this test?
Outgoing: 0 (no)

Incoming: What classification did COc1ccc(NC(=O)CC(C)=O)cc1 end up with in this test?
Outgoing: 0 (no)

Incoming: What classification did O=[N+]([O-])c1ccc(F)c(Cl)c1 end up with in this test?
Outgoing: 0 (no)

Incoming: What classification did C=CC(=O)Nc1cc2c(Nc3ccc(F)c(Cl)c3)ncnc2cc1OCCCN1CCOCC1 end up with in this test?
Outgoing: 1 (yes)

Incoming: What classification did Nc1nc2c(ncn2COCCO)c(=O)[nH]1 end up with in this test?
Outgoing: 0 (no)

Incoming: What classification did CCCCOC(=O)CO end up with in this test?
Outgoing: 0 (no)

Incoming: What classification did O=c1c(O)c(-c2ccc(O)cc2O)oc2cc(O)cc(O)c12 end up with in this test?
Outgoing: 0 (no)

Incoming: What classification did COc1cc(S(=O)(=O)O)c(C)cc1N=Nc1c(O)ccc2cc(S(=O)(=O)O)ccc12 end up with in this test?
Outgoing: 0 (no)

Incoming: What classification did COc1cc2nc(N3CCN(C(=O)c4ccco4)CC3)nc(N)c2cc1OC end up with in this test?
Outgoing: 1 (yes)

Incoming: What classification did CCO[Si](OCC)(OCC)OCC end up with in this test?
Outgoing: 0 (no)

Incoming: What classification did COC(=O)c1ccccc1C end up with in this test?
Outgoing: 0 (no)

Incoming: What classification did C[C@H]1NCc2cc(-c3ccc4c(=O)c(C(=O)O)cn(C5CC5)c4c3OC(F)F)ccc21 end up with in this test?
Outgoing: 0 (no)

Incoming: What classification did CC/C=C\CCCCCO end up with in this test?
Outgoing: 0 (no)

Incoming: What classification did COC(=O)Nc1nc2ccc(C(=O)c3ccccc3)cc2[nH]1 end up with in this test?
Outgoing: 1 (yes)

Incoming: What classification did CN(C)Cc1ccccc1O end up with in this test?
Outgoing: 0 (no)

Incoming: What classification did Nc1ccc(NCCO)c([N+](=O)[O-])c1 end up with in this test?
Outgoing: 0 (no)

Incoming: What classification did CCCCOC(=O)CC end up with in this test?
Outgoing: 0 (no)

Incoming: What classification did [Cl][Pt-2]([Cl])([Cl])[Cl] end up with in this test?
Outgoing: 0 (no)

Incoming: What classification did COc1cccc(OC)c1C(=O)O end up with in this test?
Outgoing: 0 (no)

Incoming: What classification did CCCCN(CCCC)CC(O)c1cc(Cl)cc2c1-c1ccc(Cl)cc1/C2=C/c1ccc(Cl)cc1 (stereo not drawn) end up with in this test?
Outgoing: 0 (no)

Incoming: What classification did C=CCn1c(=O)n(CC=C)c(=O)n(CC=C)c1=O end up with in this test?
Outgoing: 0 (no)

Incoming: What classification did CC1(C)CCC[C@]2(C)[C@H]3CC(=O)O[C@]3(C)CC[C@@H]12 end up with in this test?
Outgoing: 0 (no)

Incoming: What classification did CCCCNS(=O)(=O)c1ccc(C)cc1 end up with in this test?
Outgoing: 0 (no)

Incoming: What classification did CC(=O)OCC=C(C)C end up with in this test?
Outgoing: 0 (no)

Incoming: What classification did FC(F)(F)c1cccc(Cl)c1 end up with in this test?
Outgoing: 0 (no)

Incoming: What classification did CCOC(=O)Cn1cccc1-c1nc(-c2ccc(OC)cc2)c(-c2ccc(OC)cc2)s1 end up with in this test?
Outgoing: 1 (yes)

Incoming: What classification did CC(C)CCOC(=O)/C=C/c1ccccc1 end up with in this test?
Outgoing: 0 (no)

Incoming: What classification did NC(=O)c1cccc([N+](=O)[O-])c1 end up with in this test?
Outgoing: 0 (no)

Incoming: What classification did O=S(=O)(O)c1ccc(N=Nc2c(O)ccc3ccccc23)cc1 end up with in this test?
Outgoing: 0 (no)

Incoming: What classification did O=C(O)Cc1ccccc1Nc1c(Cl)cccc1Cl end up with in this test?
Outgoing: 0 (no)

Incoming: What classification did CC(CO)Oc1ccccc1 (stereo not drawn) end up with in this test?
Outgoing: 0 (no)

Incoming: What classification did c1ccc(SSc2ccccc2)cc1 end up with in this test?
Outgoing: 0 (no)

Incoming: What classification did Clc1nnc(Cl)c2ccccc12 end up with in this test?
Outgoing: 0 (no)

Incoming: What classification did O=S(=O)(O)c1ccccc1/C=C/c1ccc(-c2ccc(/C=C/c3ccccc3S(=O)(=O)O)cc2)cc1 end up with in this test?
Outgoing: 1 (yes)

Incoming: What classification did CCN1C(=O)c2ccccc2C1Nc1ccc(OCCN2CCCCC2)cc1 (stereo not drawn) end up with in this test?
Outgoing: 0 (no)

Incoming: What classification did COc1cc(C)ccc1O end up with in this test?
Outgoing: 0 (no)
